- protocol: in vivo
- Set-up: species or system Rats (Sprague-Dawley)
- experimental.conditions: rat, po
measured.attribute: TD50 at 4 h (mg/kg)
# unit: mg/kg | format: bare number

{"columns": ["molecule", "TD50 at 4 h [mg/kg]"],
 "data": [
  ["CCOC(=O)C1CCn2c1cc(C)c2C(=O)c1cccn1C (stereo not shown) [Prior Art Compound, reference compound]", 10],
  ["Cc1cc2n(c1C(=O)c1ccc(Cl)n1C)CCC2C(=O)O (stereo not shown)", 15],
  ["CCOC(=O)C1CCn2c1cc(C)c2C(=O)c1ccc(SC)n1C (stereo not shown)", 90]
]}

Next up:
Any idea what TD50 at 4 h was measured for CSc1ccc(C(=O)c2c(C)cc3n2CCC3C(=O)O)n1C (stereo not shown) ?
15
